assay_system: hMAO-A (Homo sapiens, UniProt P21397)
Construct: purchased Sigma-Aldrich (Steinheim, Germany)
Sequence (P21397 whole entry): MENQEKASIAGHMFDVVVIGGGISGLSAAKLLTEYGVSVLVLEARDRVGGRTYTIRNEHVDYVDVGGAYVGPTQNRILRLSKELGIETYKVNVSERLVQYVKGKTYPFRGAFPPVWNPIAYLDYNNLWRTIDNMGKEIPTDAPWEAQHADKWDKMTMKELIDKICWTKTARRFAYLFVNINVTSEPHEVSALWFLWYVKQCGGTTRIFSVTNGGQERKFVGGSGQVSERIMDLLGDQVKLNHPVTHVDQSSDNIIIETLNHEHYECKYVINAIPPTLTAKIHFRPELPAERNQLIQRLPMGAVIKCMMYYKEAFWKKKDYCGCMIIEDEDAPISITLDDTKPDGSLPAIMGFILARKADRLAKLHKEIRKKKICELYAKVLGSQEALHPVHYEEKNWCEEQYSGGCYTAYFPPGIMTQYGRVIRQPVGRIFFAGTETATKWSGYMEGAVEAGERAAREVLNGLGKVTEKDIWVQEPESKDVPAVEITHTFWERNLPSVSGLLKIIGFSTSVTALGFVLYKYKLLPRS
test_description: Monoamine oxidase fluorometric inhibition assay, MAO-A
Format: biochemical
condition: 10^−4 M
Method: In order to investigate the monoamine oxidase enzyme inhibitory effects of synthesized compounds, MAO-A and MAO-B enzyme activities were performed by using a fluorometric inhibition method. Moclobemide and selegiline were used as standard drugs for MAO-A and MAO-B enzymes, respectively. Test compounds and standard drugs were used in the same concentrations as in AChE and BChE enzyme activity assays. […] Ampliflu™ Red (10-Acetyl-3,7-dihydroxyphenoxazine) was used as a fluorescence reagent in this assay.
Each record here notes measured inhibition at 100 µM.
The answer is to be given in %; state only the numeric part.

The cases that follow already have their inhibition at 100 µM on record.
molecule: Fc1ccc(-c2csc(NN=Cc3ccc(N4CCN(c5ccc(F)cc5)CC4)cc3)n2)cc1 [Compound 3f]
units_text: %
inhibition at 100 µM: 19.3
//
molecule: COc1ccc(-c2csc(NN=Cc3ccc(N4CCN(c5ccc(F)cc5)CC4)cc3)n2)cc1 [Compound 3c]
units_text: %
inhibition at 100 µM: 21.8
//
molecule: Fc1ccc(N2CCN(c3ccc(C=NNc4nc(-c5ccc(C(F)(F)F)cc5)cs4)cc3)CC2)cc1 [Compound 3i]
units_text: %
inhibition at 100 µM: 22.8
//
molecule: O=C(NCCN1CCOCC1)c1ccc(Cl)cc1 [Moclobemide, reference compound]
units_text: %
inhibition at 100 µM: 78.2

Item O=[N+]([O-])c1ccc(-c2csc(NN=Cc3ccc(N4CCN(c5ccc(F)cc5)CC4)cc3)n2)cc1 [Compound 3d] ; assay system hMAO-A (Homo sapiens, UniProt P21397); inhibition at 100 µM reported as 39.1

Item Fc1ccc(N2CCN(c3ccc(C=NNc4nc(-c5ccc(Br)cc5)cs4)cc3)CC2)cc1 [Compound 3h] ; assay system hMAO-A (Homo sapiens, UniProt P21397); inhibition at 100 µM reported as 22.2

Item Fc1ccc(N2CCN(c3ccc(C=NNc4nc(-c5ccccc5)cs4)cc3)CC2)cc1 [Compound 3a] ; assay system hMAO-A (Homo sapiens, UniProt P21397); inhibition at 100 µM reported as 20.1

Item Cc1ccc(-c2csc(NN=Cc3ccc(N4CCN(c5ccc(F)cc5)CC4)cc3)n2)c(C)c1 [Compound 3j] ; assay system hMAO-A (Homo sapiens, UniProt P21397); inhibition at 100 µM reported as 40.2

Item Cc1ccc(-c2csc(NN=Cc3ccc(N4CCN(c5ccc(F)cc5)CC4)cc3)n2)cc1 [Compound 3b] ; assay system hMAO-A (Homo sapiens, UniProt P21397); inhibition at 100 µM reported as 25.8

Item Fc1ccc(N2CCN(c3ccc(C=NNc4nc(-c5ccc(Cl)cc5)cs4)cc3)CC2)cc1 [Compound 3g] ; assay system hMAO-A (Homo sapiens, UniProt P21397); inhibition at 100 µM reported as 30.2

Item Fc1ccc(N2CCN(c3ccc(C=NNc4nc(-c5ccc(Cl)cc5Cl)cs4)cc3)CC2)cc1 [Compound 3k] ; assay system hMAO-A (Homo sapiens, UniProt P21397); inhibition at 100 µM reported as 19.1

Item N#Cc1ccc(-c2csc(NN=Cc3ccc(N4CCN(c5ccc(F)cc5)CC4)cc3)n2)cc1 [Compound 3e] ; assay system hMAO-A (Homo sapiens, UniProt P21397); inhibition at 100 µM reported as 23.5

###

Each record here notes measured inhibition at 100 µM.
assay_system: BChE (Homo sapiens, UniProt P06276)
Sequence (P06276 29-602): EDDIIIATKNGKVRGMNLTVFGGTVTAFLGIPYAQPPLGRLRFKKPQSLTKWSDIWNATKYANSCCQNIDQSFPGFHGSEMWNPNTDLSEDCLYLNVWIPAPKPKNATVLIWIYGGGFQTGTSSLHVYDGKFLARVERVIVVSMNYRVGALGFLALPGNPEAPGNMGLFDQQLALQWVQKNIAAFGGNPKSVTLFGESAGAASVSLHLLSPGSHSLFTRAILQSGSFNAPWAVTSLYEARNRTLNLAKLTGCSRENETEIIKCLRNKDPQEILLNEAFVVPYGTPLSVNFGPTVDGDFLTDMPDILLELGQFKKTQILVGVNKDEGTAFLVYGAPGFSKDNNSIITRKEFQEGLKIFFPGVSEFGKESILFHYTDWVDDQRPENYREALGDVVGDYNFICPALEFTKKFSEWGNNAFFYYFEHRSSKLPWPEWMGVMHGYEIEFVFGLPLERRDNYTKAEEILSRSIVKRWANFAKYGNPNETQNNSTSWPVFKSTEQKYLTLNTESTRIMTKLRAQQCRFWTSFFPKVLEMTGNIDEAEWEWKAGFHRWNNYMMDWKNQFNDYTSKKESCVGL
test_description: Anticholinesterase activity assay (modified Ellman method), BChE
Type: biochemical
condition: 10^−4 M
The answer is to be given in %; state only the numeric part.

The cases that follow already have their inhibition at 100 µM on record.
compound_smiles: N#Cc1ccc(-c2csc(NN=Cc3ccc(N4CCN(c5ccc(F)cc5)CC4)cc3)n2)cc1
assay_system: BChE (Homo sapiens, UniProt P06276)
metric: inhibition at 100 µM
numeric_result: 24.9
//
compound_smiles: Fc1ccc(-c2csc(NN=Cc3ccc(N4CCN(c5ccc(F)cc5)CC4)cc3)n2)cc1
assay_system: BChE (Homo sapiens, UniProt P06276)
metric: inhibition at 100 µM
numeric_result: 20.4
//
compound_smiles: Fc1ccc(N2CCN(c3ccc(C=NNc4nc(-c5ccc(Br)cc5)cs4)cc3)CC2)cc1
assay_system: BChE (Homo sapiens, UniProt P06276)
metric: inhibition at 100 µM
numeric_result: 35.5

What the record says about COc1ccc(-c2csc(NN=Cc3ccc(N4CCN(c5ccc(F)cc5)CC4)cc3)n2)cc1 : inhibition at 100 µM is 21.6

What the record says about O=[N+]([O-])c1ccc(-c2csc(NN=Cc3ccc(N4CCN(c5ccc(F)cc5)CC4)cc3)n2)cc1 : inhibition at 100 µM is 31.9

What the record says about Cc1ccc(-c2csc(NN=Cc3ccc(N4CCN(c5ccc(F)cc5)CC4)cc3)n2)c(C)c1 : inhibition at 100 µM is 25.7

What the record says about Fc1ccc(N2CCN(c3ccc(C=NNc4nc(-c5ccccc5)cs4)cc3)CC2)cc1 : inhibition at 100 µM is 19.3

What the record says about Fc1ccc(N2CCN(c3ccc(C=NNc4nc(-c5ccc(Cl)cc5Cl)cs4)cc3)CC2)cc1 : inhibition at 100 µM is 21

###

assay_system: BChE (Homo sapiens)
test_description: Anticholinesterase activity assay (modified Ellman method), BChE
Assay type: biochemical
condition: 10^−3 M
metric: inhibition at 1000 µM (%)
The answer is to be given in %; state only the numeric part.

The cases that follow already have their inhibition at 1000 µM on record.
compound_smiles: Cc1ccc(-c2csc(NN=Cc3ccc(N4CCN(c5ccc(F)cc5)CC4)cc3)n2)c(C)c1
inhibition at 1000 µM [%]: 31.9
--
compound_smiles: Fc1ccc(N2CCN(c3ccc(C=NNc4nc(-c5ccc(C(F)(F)F)cc5)cs4)cc3)CC2)cc1
inhibition at 1000 µM [%]: 45.4
--
compound_smiles: Fc1ccc(N2CCN(c3ccc(C=NNc4nc(-c5ccc(Cl)cc5Cl)cs4)cc3)CC2)cc1
inhibition at 1000 µM [%]: 28.6

Turning now to a further record.
What the record says about COc1ccc(-c2csc(NN=Cc3ccc(N4CCN(c5ccc(F)cc5)CC4)cc3)n2)cc1 : inhibition at 1000 µM is 28

###

assay_system: hMAO-A (Homo sapiens)
Construct: purchased Sigma-Aldrich (Steinheim, Germany)
test_description: Monoamine oxidase fluorometric inhibition assay, MAO-A
Assay type: biochemical
condition: 10^−3 M
Experimental: In order to investigate the monoamine oxidase enzyme inhibitory effects of synthesized compounds, MAO-A and MAO-B enzyme activities were performed by using a fluorometric inhibition method. Moclobemide and selegiline were used as standard drugs for MAO-A and MAO-B enzymes, respectively. Test compounds and standard drugs were used in the same concentrations as in AChE and BChE enzyme activity assays. […] Ampliflu™ Red (10-Acetyl-3,7-dihydroxyphenoxazine) was used as a fluorescence reagent in this assay.
metric: inhibition at 1000 µM (%)
The answer is to be given in %; state only the numeric part.

compound: Fc1ccc(N2CCN(c3ccc(C=NNc4nc(-c5ccc(C(F)(F)F)cc5)cs4)cc3)CC2)cc1 [Compound 3i]
inhibition at 1000 µM / %: 38.2

compound: Cc1ccc(-c2csc(NN=Cc3ccc(N4CCN(c5ccc(F)cc5)CC4)cc3)n2)cc1 [Compound 3b]
inhibition at 1000 µM / %: 44.2

compound: Fc1ccc(N2CCN(c3ccc(C=NNc4nc(-c5ccc(Br)cc5)cs4)cc3)CC2)cc1 [Compound 3h]
inhibition at 1000 µM / %: 34.2

Turning now to a further record.
What the record says about Fc1ccc(N2CCN(c3ccc(C=NNc4nc(-c5ccccc5)cs4)cc3)CC2)cc1 [Compound 3a] : inhibition at 1000 µM is 38.2

###

Each record here notes measured inhibition at 100 µM.
assay_system: BChE (Homo sapiens, UniProt P06276)
test_description: Anticholinesterase activity assay (modified Ellman method), BChE
Format: biochemical
condition: 10^−4 M
The answer is to be given in %; state only the numeric part.

The cases that follow already have their inhibition at 100 µM on record.
compound_smiles: Fc1ccc(N2CCN(c3ccc(C=NNc4nc(-c5ccc(C(F)(F)F)cc5)cs4)cc3)CC2)cc1
assay_system: BChE (Homo sapiens, UniProt P06276)
metric: inhibition at 100 µM
numeric_result: 35.4
--
compound_smiles: Fc1ccc(N2CCN(c3ccc(C=NNc4nc(-c5ccc(Cl)cc5)cs4)cc3)CC2)cc1
assay_system: BChE (Homo sapiens, UniProt P06276)
metric: inhibition at 100 µM
numeric_result: 20.2

Turning now to a further record.
What the record says about Cc1ccc(-c2csc(NN=Cc3ccc(N4CCN(c5ccc(F)cc5)CC4)cc3)n2)cc1 : inhibition at 100 µM is 25.3

###

Each record here notes measured IC50.
assay_system: hMAO-B (Homo sapiens)
Sequence (P27338 whole entry): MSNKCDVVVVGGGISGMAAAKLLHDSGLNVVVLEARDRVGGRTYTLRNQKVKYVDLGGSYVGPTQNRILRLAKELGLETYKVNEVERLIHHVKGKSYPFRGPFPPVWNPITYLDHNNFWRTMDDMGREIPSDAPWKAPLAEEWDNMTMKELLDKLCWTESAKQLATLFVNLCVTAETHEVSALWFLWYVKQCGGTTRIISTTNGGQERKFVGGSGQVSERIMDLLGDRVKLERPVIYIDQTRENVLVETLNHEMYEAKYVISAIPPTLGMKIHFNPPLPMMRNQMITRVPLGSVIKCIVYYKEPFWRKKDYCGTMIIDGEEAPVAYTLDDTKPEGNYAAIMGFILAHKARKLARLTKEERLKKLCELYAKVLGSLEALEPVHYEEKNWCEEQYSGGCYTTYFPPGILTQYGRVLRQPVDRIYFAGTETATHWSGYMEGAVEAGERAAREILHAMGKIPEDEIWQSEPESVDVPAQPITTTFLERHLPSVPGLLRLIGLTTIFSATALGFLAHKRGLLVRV
The answer is to be given in µM; state only the numeric part.

Item O=[N+]([O-])c1ccc(-c2csc(NN=Cc3ccc(N4CCN(c5ccc(F)cc5)CC4)cc3)n2)cc1 ; assay system hMAO-B (Homo sapiens); IC50 reported as 5.2

Item Fc1ccc(N2CCN(c3ccc(C=NNc4nc(-c5ccccc5)cs4)cc3)CC2)cc1 ; assay system hMAO-B (Homo sapiens); IC50 reported as 2.11

Item COc1ccc(-c2csc(NN=Cc3ccc(N4CCN(c5ccc(F)cc5)CC4)cc3)n2)cc1 ; assay system hMAO-B (Homo sapiens); IC50 reported as 1.02
